Listing of entries alongside the reported absorption maximum.
Assay: solvent given as SMILES
Conditions: in CN(C)C=O
Readout Label: absorption maximum (nm)

smiles_entry=CN(C)c1ccc(-c2ccc(-c3cc(N4CCCCC4)c(C#N)c4c3-c3ccccc3CC4)s2)cc1 readout_label="absorption maximum" output_unit=nm test_result=384
smiles_entry=Cc1ccc(Nc2ccc(Nc3ccc(C)cc3)c3c2C(=O)c2ccccc2C3=O)cc1 readout_label="absorption maximum" output_unit=nm test_result=643
smiles_entry=CN(C)c1ccc(/C=C2\CCCC2=O)cc1 readout_label="absorption maximum" output_unit=nm test_result=383

====

Experiment: solvent given as SMILES
Details: in ClC(Cl)Cl
Please mark yes (1) if the recorded absorption maximum is equal to or greater than 500 nm, and no (0) if it falls below.

smiles_entry=CCCCCCCCCCCCCCCCOc1cc(C#Cc2ccc3ccccc3c2-c2c(C#Cc3cc(OCCCCCCCCCCCCCCCC)c(C#Cc4ccc(C=C(C#N)C#N)cc4)cc3OCCCCCCCCCCCCCCCC)ccc3ccccc23)c(OCCCCCCCCCCCCCCCC)cc1C#Cc1ccc(C=C(C#N)C#N)cc1 label_value="no (0)"
smiles_entry=NCc1ccc2ccc3cccc4ccc1c2c34 label_value="no (0)"
smiles_entry=COc1ccc2cc(C3=[N+]4C(=Nc5c(-c6ccccc6)cc(-c6ccc7cc(OC)ccc7c6)n5[B-]4(F)F)C(c4ccccc4)=C3Br)ccc2c1 label_value="yes (1)"
smiles_entry=CC1(C)CCc2c(c3ccccc3c3nc4ccccc4nc23)O1 label_value="no (0)"
smiles_entry=CC1=c2c3c4cccc5cccc(c=3c(C)[n+]2[B-](F)(F)n2c(C)c3c(c21)-c1cccc2cccc-3c12)c54 label_value="yes (1)"
smiles_entry=CC(C)[Si](C#Cc1c2c(=O)c3ccccc3c2c(C#C[Si](C(C)C)(C(C)C)C(C)C)c2c(=O)c3ccccc3c12)(C(C)C)C(C)C label_value="yes (1)"
smiles_entry=Cc1ccc(NC(=O)c2sc(Br)nc2C)cc1 label_value="no (0)"
smiles_entry=COc1cc(OC)cc(-c2ccc(-c3ccc(C#N)s3)s2)c1 label_value="no (0)"

====

Listing of entries alongside the reported absorption maximum.
Experiment: solvent given as SMILES
Conditions: in CN(C)C=O
Readout Label: absorption maximum (nm)

molecule=Cc1nc2cccc(-c3nc4ccc([N+](=O)[O-])cc4[nH]3)c2c(=O)[nH]1 test_result=310
molecule=COc1ccc2cc(-c3ccc(S(C)(=O)=O)cc3)oc(=O)c2c1 test_result=333
molecule="Cc1c2oc3c(C)c(N)cc(C(=O)NC4OC(=O)C(C(C)C)N(C)C(=O)CN(C)C(=O)C5CCCN5C(=O)C(C(C)C)NC4=O)c3nc-2c(C(=O)NC2OC(=O)C(C(C)C)N(C)C(=O)CN(C)C(=O)C3CCCN3C(=O)C(C(C)C)NC2=O)c(N)c1=O (centres undefined)" test_result=535.18
molecule=O=C(N/N=C/c1ccccc1O)c1ccc([N+](=O)[O-])cc1 test_result=380

====

Experiment: solvent given as SMILES
Details: in CC(C)O
Listing of entries alongside the reported absorption maximum.
Readout Label: absorption maximum (nm)

molecule=COc1cc(OC)cc(-c2ccc(-c3ccc(C#N)s3)s2)c1 test_result=365
molecule=CCN(CC)c1ccc(OC)c(C=O)c1 test_result=418
molecule=CN(C)c1ccc(/C=C/c2cc[n+](CCCOCC(COCCC[n+]3ccc(/C=C/c4ccc(N(C)C)cc4)cc3)(COCCC[n+]3ccc(/C=C/c4ccc(N(C)C)cc4)cc3)COCCC[n+]3ccc(/C=C/c4ccc(N(C)C)cc4)cc3)cc2)cc1 test_result=479
molecule="COC(=O)C(Cc1ccc2oc(-c3ccc4c(c3)c3ccccc3n4-c3ccccc3)nc2c1)NC(=O)OC(C)(C)C (centres undefined)" test_result=327
molecule="C[C@]12C(=O)NC(=O)N([C@H]3CC(O)[C@@H](CO)O3)[C@H]1[C@H]1Oc3cc4oc(=O)ccc4cc3[C@H]12 (some centres undefined)" test_result=327
molecule=Cc1cccc2cc3c(=O)n(C)c(=O)n(C)c3nc12 test_result=360
molecule=COC1=C/C(=C\C=C2C=CN(Cc3ccc(Br)cc3)C=C2)C=CC1=O test_result=585
molecule=CN(C)c1ccc(C#Cc2ccccc2)cc1 test_result=321.4
molecule=Nc1cc(N)cc(-c2nc3ccccc3s2)c1 test_result=360
molecule=CN(C)c1ccc(/C=C2\CCCC2=O)cc1 test_result=390
molecule=Cc1ccc2cc3c(=O)n(C)c(=O)n(C)c3nc2c1 test_result=353
molecule=CN(C)c1ccc(/C=C/c2cc[n+](CCCCC[n+]3ccc(/C=C/c4ccc(N(C)C)cc4)cc3)cc2)cc1 test_result=486
molecule=Cc1cc(O)c(C(C)C)cc1/N=C/c1ccc([N+](=O)[O-])cc1 test_result=404
molecule="NS(=O)(=O)c1ccc(N2N=C(c3ccc(O)cc3)CC2c2ccccc2)cc1 (centres undefined)" test_result=357
molecule=O=C([O-])c1ccccc1-c1c2cc(I)c(=O)c(I)c-2oc2c(I)c([O-])c(I)cc12 test_result=532
molecule="COC(=O)C(Cc1ccc2oc(-c3ccc(N(c4ccccc4)c4ccccc4)cc3)nc2c1)NC(=O)OC(C)(C)C (centres undefined)" test_result=365.45
molecule=COc1ccccc1-c1c(-c2ccccc2O)nc(-c2ccc(C(F)(F)F)cc2)n1-c1ccc(C)cc1 test_result=311
molecule=CCC1=C(C)C2=C(C)c3c(C)c(CC)c(C)n3[B-](F)(F)[N+]2=C1C test_result=518.8
molecule=CN(C)c1ccc(/C=C2/N=C(c3ccccc3)OC2=O)cc1 test_result=470
molecule=Oc1cccc(/N=C/c2ccccc2Oc2ccccc2)c1 test_result=324
molecule=CN(C)c1ccc(/C=C/C=C2\CCCC2=O)cc1 test_result=420
molecule=CN(C)c1ccc2c(c1)C(=O)NC2=O test_result=389
molecule=COc1ccc(-c2cc(-c3ccc(OC)cc3)c3c(N)nc(N4CCCC4)c(C#N)c3n2)cc1 test_result=412
molecule=CCc1ccc(/C=N/c2cc(C(C)C)c(O)cc2C)cc1 test_result=347

====

Experiment: solvent given as SMILES
Settings: in CCCCO
Readout Label: absorption maximum (nm)

molecule=CCc1ccc(/C=N/c2cc(C(C)C)c(O)cc2C)cc1 test_result=349
molecule=CN(C)c1ccc(/C=C2\CCCC2=O)cc1 test_result=392
molecule=Cc1ccc(Nc2ccc(Nc3ccc(C)cc3)c3c2C(=O)c2ccccc2C3=O)cc1 test_result=639
molecule=CCC1=C(C)C2=C(C)c3c(C)c(CC)c(C)n3[B-](F)(F)[N+]2=C1C test_result=519.4
molecule=COC1=C/C(=C\C=C2C=CN(Cc3ccc(Br)cc3)C=C2)C=CC1=O test_result=576
molecule=CN(C)c1ccc(/C=C/C=C2\CC/C(=C\C=C\c3ccc(N(C)C)cc3)C2=O)cc1 test_result=524
molecule="Cc1c2oc3c(C)c(N)cc(C(=O)NC4OC(=O)C(C(C)C)N(C)C(=O)CN(C)C(=O)C5CCCN5C(=O)C(C(C)C)NC4=O)c3nc-2c(C(=O)NC2OC(=O)C(C(C)C)N(C)C(=O)CN(C)C(=O)C3CCCN3C(=O)C(C(C)C)NC2=O)c(N)c1=O (configuration not stated)" test_result=532.67

====

Listing of entries alongside the reported absorption maximum.
Assay: solvent given as SMILES
Details: in OCCO
Readout Label: absorption maximum (nm)

smiles_entry=Oc1cccc(/N=C/c2ccccc2Oc2ccccc2)c1 test_result=328
smiles_entry=Cc1cc(O)c(C(C)C)cc1/N=C/c1ccc([N+](=O)[O-])cc1 test_result=401
smiles_entry=CCc1ccc(/C=N/c2cc(C(C)C)c(O)cc2C)cc1 test_result=346
smiles_entry=CCN(CC)c1ccc(/C=C/C2=[O+][B-](F)(F)Oc3c2c(=O)oc2cc(N(CC)CC)ccc32)cc1 test_result=605
smiles_entry=CN(C)c1ccc(/C=C/C=C/c2nc3ccccc3o2)cc1 test_result=424

====

Assay: solvent given as SMILES
Settings: in CCCCCC
Readout Label: absorption maximum (nm)

molecule=COc1ccc(-c2nc(C(C)=O)c(C)o2)cc1 readout_label="absorption maximum" output_unit=nm test_result=278
molecule=CCCCCCCCC1(CCCCCCCC)c2cc(C#CC#Cc3ccc(N(c4ccccc4)c4ccccc4)cc3)ccc2-c2ccc(C=O)cc21 readout_label="absorption maximum" output_unit=nm test_result=378
molecule="OC1(c2ccc(-c3cccs3)s2)CCC(c2ccccc2)CC1 (centres undefined)" readout_label="absorption maximum" output_unit=nm test_result=307
molecule=F[B-]1(F)n2cccc2C(c2c3ccccc3c(-c3ccccc3)c3ccccc23)=C2C=CC=[N+]21 readout_label="absorption maximum" output_unit=nm test_result=509
molecule="CCC1=C(C)C2=Cc3c4ccccc4c4n3[B-](C)(Oc3ccccc3-4)[N+]2=C1C (centres undefined)" readout_label="absorption maximum" output_unit=nm test_result=621
molecule=CC(C)c1ccc2ccc3c(C(C)C)ccc4ccc1c2c43 readout_label="absorption maximum" output_unit=nm test_result=345
molecule=c1cc2ccc3cccc4ccc(c1)c2c34 readout_label="absorption maximum" output_unit=nm test_result=330
molecule=O=C1c2ccccc2C(=O)c2cc(-c3ccc(N(c4ccccc4)c4ccccc4)cc3)ccc21 readout_label="absorption maximum" output_unit=nm test_result=442
molecule=CC(C)[Si](C#Cc1c2ccccc2c(C#C[Si](C(C)C)(C(C)C)C(C)C)c2nc3c(ccc4ccccc43)nc12)(C(C)C)C(C)C readout_label="absorption maximum" output_unit=nm test_result=544
molecule=CN(C)c1ccc(/C=C/C=C2\CCCC2=O)cc1 readout_label="absorption maximum" output_unit=nm test_result=394
molecule=OC1(c2ccc(-c3cccs3)s2)CCCCC1 readout_label="absorption maximum" output_unit=nm test_result=308
molecule=CCCCCCCCOc1ccc(C2=C3C(C)=C(C#Cc4ccc(B(c5c(C)cc(C)cc5C)c5c(C)cc(C)cc5C)cc4)C(C)=[N+]3[B-](F)(F)n3c(C)c(C#Cc4ccc(B(c5c(C)cc(C)cc5C)c5c(C)cc(C)cc5C)cc4)c(C)c32)cc1 readout_label="absorption maximum" output_unit=nm test_result=580.18
molecule=COCCN1C(=O)/C(=C/c2cccc(N(C)C)c2)N=C1C readout_label="absorption maximum" output_unit=nm test_result=352
molecule=COc1ccc2n1[B-](F)(F)[N+]1=CC=CC1=C2c1ccccc1 readout_label="absorption maximum" output_unit=nm test_result=499
molecule=CCCCc1ccc2ccc3cccc4ccc1c2c34 readout_label="absorption maximum" output_unit=nm test_result=338
molecule=Cc1ccc(C2=[N+]3C(=Cc4ccc(C)n4[B-]3(F)F)c3ccccc32)[nH]1 readout_label="absorption maximum" output_unit=nm test_result=602
molecule=CC1=CC(C)=[N+]2C1=C(c1c3ccccc3c(C)c3ccccc13)c1c(C)cc(C)n1[B-]2(F)F readout_label="absorption maximum" output_unit=nm test_result=505
molecule=CCCSc1ccc2n1[B-](F)(F)[N+]1=CC=CC1=C2c1ccccc1 readout_label="absorption maximum" output_unit=nm test_result=536
molecule="COC(=O)C(Cc1ccc2oc(-c3ccc(N(c4ccccc4)c4ccccc4)cc3)nc2c1)NC(=O)OC(C)(C)C (centres undefined)" readout_label="absorption maximum" output_unit=nm test_result=359.8
